Data origin: patent US20210388087A1

Target: T1, Human CD137 ECD (human)
T1 construct: also called 4-1BB
T1 sequence (chain, as listed by the source limits assumed): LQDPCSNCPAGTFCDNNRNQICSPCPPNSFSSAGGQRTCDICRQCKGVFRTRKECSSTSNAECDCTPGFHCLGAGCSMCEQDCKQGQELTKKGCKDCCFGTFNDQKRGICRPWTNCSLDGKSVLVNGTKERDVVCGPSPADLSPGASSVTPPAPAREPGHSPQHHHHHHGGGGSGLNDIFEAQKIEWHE
Assay: single mutant vs template dBBDu183H
This section presents binders with their documented fold change of affinity values.
measurement kind: fold change of affinity (fold)

H183/L072 VH V100cI (antibody, name in Kabat numbering, V domains shown) VH: QVQLVESGGGLVQPGRSLRLSCAASGFTFSNAWMHWVRQAPGKGLEWVAQIKDKGNAYAAYYAPSVKGRFTISRDDSKNSIYLQMNSLKTEDTAVYYCHYVHYASASTILPAFGVDAWGQGTTVTVSS VL: DIVMTQSPLSLPVTPGEPASISCQASQELVHMNRNTYLHWYQQKPGQAPRLLIYKVSNRFPGVPDRFSGSGSGTDFTLKISRVEAEDVGVYYCAQGTSVPFTFGQGTKLEIK; 2.5
H183/L072 VH D101L (antibody, name in Kabat numbering, V domains shown) VH: QVQLVESGGGLVQPGRSLRLSCAASGFTFSNAWMHWVRQAPGKGLEWVAQIKDKGNAYAAYYAPSVKGRFTISRDDSKNSIYLQMNSLKTEDTAVYYCHYVHYASASTVLPAFGVLAWGQGTTVTVSS VL: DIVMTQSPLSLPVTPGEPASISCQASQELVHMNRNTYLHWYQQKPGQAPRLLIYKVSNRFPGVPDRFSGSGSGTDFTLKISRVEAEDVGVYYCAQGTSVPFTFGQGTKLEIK; 0
H183/L072 VH S100aI (antibody, name in Kabat numbering, V domains shown) VH: QVQLVESGGGLVQPGRSLRLSCAASGFTFSNAWMHWVRQAPGKGLEWVAQIKDKGNAYAAYYAPSVKGRFTISRDDSKNSIYLQMNSLKTEDTAVYYCHYVHYASAITVLPAFGVDAWGQGTTVTVSS VL: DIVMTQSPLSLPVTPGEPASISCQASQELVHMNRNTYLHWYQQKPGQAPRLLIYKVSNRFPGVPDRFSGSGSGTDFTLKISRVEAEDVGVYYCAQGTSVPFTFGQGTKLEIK; 0
